Just for reference, patent US20230241071A1 is where these values come from.

Assay: Multiple-ascending dose trial of Compound 1 in healthy participants: safety and PK
Assay type: in vivo, human
Conditions: human, plasma, 10 mg, 10 mg QD, Last day (of 14); median (min, max)
Experimental endpoint: Tmax (h)
Lab book: enter the figure in h, no units written.

Challenge: Endpoint output: Tmax of COC1CCN(c2ncc(OC/C(=C/F)CN)cn2)CC1 [Compound 1] . Value?
Response given: 3.98

* * *

Experiment: Single-ascending dose trial of Compound 2 in healthy participants: safety and PK
Type: in vivo, human
Settings: human, plasma, oral, 30 mg, single dose 30 mg, fasted (n = 6); median (min-max); read-out: t1/2 (converted)
Protocol: A single-ascending dose clinical trial of Compound 2 (potassium salt) was performed. Compound 2 plasma and urine concentrations were determined using validated liquid chromatography-tandem mass spectrometry assay Urine samples for Compound 2 concentration and PK sampling were collected pre-dose and at the following timepoints: 0-6 hours, 6-12 hours, 12-24 hours, and 24-48 hours. PK parameters were estimated via noncompartmental methods using Phoenix® WinNonlin® (Certara, LP, Princeton, N.J.). […]
Experimental endpoint: half-life (h)
// note: answer is a bare numeric in h

Challenge: What value of half-life has been reported for the following compound? N#Cc1nn(-c2cc(Cl)c(Oc3n[nH]c(=O)c4ccccc34)c(Cl)c2)c(=O)[nH]c1=O [Compound 2]
Response given: 15.7
